Values from the OPERA property sets (Mansouri et al. 2018)

Please go through the items and note down their logP.
Just the number.

*Q* logP for COc1ccc(C2Cc3cc(SC(C)(C)C)ccc3N(CCN(C)C)C(=O)C2OC(C)=O)cc1 (stereo not drawn) ?
*A* 5.6

*Q* What do we get for CCNC1CCc2c(OC)cccc2C1C (stereo not drawn) ?
*A* 2.67

*Q* What do we get for CCNC(=O)NS(=O)(=O)c1cnccc1Nc1ccccc1C ?
*A* 3.06

*Q* What do we get for Cc1cnc(C(=O)OCCCn2ccc(=O)c(O)c2C)cn1 ?
*A* -0.49

*Q* What do we get for O=C(O)CCCCCON=C(c1cccc(C(F)(F)F)c1)c1cccnn1 ?
*A* 3.22

*Q* What do we get for O=C1c2ccccc2-c2nnccc21 ?
*A* 1.22

*Q* What do we get for CCNc1ccncc1S(=O)(=O)NC(=NC#N)NC(C)C ?
*A* -0.24

*Q* What do we get for CC1CC(N)CN1c1nc2c(cc1F)c(=O)c(C(=O)O)cn2-c1ccc(F)cc1F (stereo not drawn) ?
*A* -0.2

*Q* What do we get for CC(C)(C)[N+]([O-])=Cc1ccncc1 ?
*A* 0.4

*Q* What do we get for CCNC(=S)SC ?
*A* 1.57

*Q* What do we get for CC(C)OC(=O)C(=Cc1ccccc1)S(=O)(=O)c1ccc([N+](=O)[O-])cc1 ?
*A* 3.62

*Q* What do we get for CCOC(=O)c1cccc(N(C)C)c1 ?
*A* 3.19

*Q* What do we get for NC(=O)C(CCN1CCCCC1)c1ccccc1Cl (stereo not drawn) ?
*A* 2.46
